Origin of the recorded values: patent US20190262327A1

tested target: T1, human Amyloid beta 1-42 peptide (Homo sapiens, UniProt P05067)
T1 construct: biotinylated human Amyloid beta 1-42 peptide (rpeptide, USA; cat: A1117); purchased rPeptide, USA A1117; host or cells: synthetic peptide
T1 sequence (P05067 672-713): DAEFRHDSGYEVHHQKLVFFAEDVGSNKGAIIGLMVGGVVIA
protocol description: Surface Plasmon Resonance kinetic profiling of purified scFv (ProteOn)
Format: binding
condition: biotinylated human Amyloid beta 1-42 on streptavidin chip
reported property: ka (M⁻¹ s⁻¹)
Answer with a number only, understood to be in M⁻¹ s⁻¹.

molecule | reported property | result value
Abet0371: optimized anti-Aβ1-42 clone derived from Abet0144-GL (protein, left off: small tags and cut ends, optimized anti-Aβ1-42 clone derived from Abet0144-GL) scFv (part 1 of 2): EVQLSESGGGLVQPGGSLRLSCAASHDAFPFDTMWWVRQAPGKGLEWVSVIGSSGGTTVYADSVKGRFTVSRDNSKNTLYLQMNSLRAEDTAVYYCAREWMDHSRPYYYYGMDVWGQGTLVTVSS scFv (part 2 of 2): SYELTQPPSVSVSPGQTASITCSGHNISSSWVSWYQQKPGQSPVLVIYRDDKRPSGIPERFSASNSGHTATLTISGTQATDEADYYCSSQDTVTRVFGGGTKLTVL | ka | 357000

Consider the record given below.
For reference, reported ka for Abet0380: optimized anti-Aβ1-42 clone derived from Abet0144-GL, non-germlined (protein, left off: small tags and cut ends, optimized anti-Aβ1-42 clone derived from Abet0144-GL, non-germlined) scFv (part 1 of 2): EVQLLESGGGLVQPGGSLRLSCAASMGNFNYQTMWWVRQAPGRGLEWVSVIGKTNENIAYADSVKGRFTISRDNSKNTLYLQMNSLRAEDTAVYYCAREWMDHSRPYYYYGMDVWGQGTLVTVSS scFv (part 2 of 2): SYELTQPPSVSVSPGQTASITCSGHNLEDKFASWYQQKPGQSPVLVIYRDDKRPSGIPERFSASNSGHTATLTISGTQATDEADYYCSSQDTVTRVFGGGTKLTVL stands at 193000
